Experiment: yeast display, Sf9 membrane polyspecificity reagent, FACS + sequencing; frameworks hold sequencing errors
measuredParameter: polyreactivity (PSR sort gate)

>>> result("QVQLVESGGGLVQAGGSLRLSCAASGSIFWRYSMGWYRQAPGKERELVAAINYSTTRTYYADSVKGRFTISRDNAKNTVYLQMNSLKPEDTAVYYCAADSRVDEGEYWGQGTQVTVSS")
"high polyreactivity"
>>> result("QVQLVESGGGLVQAGGTLRLSCAASGLIFDANAMGWYRQAPGTERELVAAITGSGGRTYYADSVKGRFTISRDIAKHTVYLQMNSLKPEDTAVYYCAASSKRKYLYNYWGQGTQVTVSS")
"high polyreactivity"
>>> result("QVQLVESGGGLVQAGGSLRLSCAASGSTFGYYTMGWYRQAPGKERELVAAITWSGGSTYYADSVKGRFTISRDNAKNSVYLQINSLKPEDSSVYYCAADDYWTPFGYWGQGTQVTVSS")
"low polyreactivity"
>>> result("QVQLVESGGGLVQAGGSLRLSCAASGSIFQYNAMGWYRQAPGTERELVAAITWTGTSTYADSVKGRFTISRDNAKNTVYLQMNSLKPEDTAVYYCAARYYAPRWFRYDYWGQGTQVTVSS")
"low polyreactivity"
>>> result("QVQLVESGGGLVQAGGSLRLSCAASGRIFTGNVMGWYRQAPGKERELFAAISYGGGSTNYADSVKGRFTISRDNAKNTVYLQMNSLKPEDTAVYYCAAGIKRYLSYYTRYGYWGQGTQVTVSS")
"high polyreactivity"
>>> result("QVQLVESGGGLVQAGGSLRLSCPASGHIFDYNALGWYRQAPGKERELVAAITSGGTTTYADSVKGRFTISRDNAKHTVYLQMNSLKPEDTAVYYCARKRYFGGWSRYGYGYWGQGTQVTVSS")
"high polyreactivity"
>>> result("QVQLVESGGGLVQAGGSLRLSCAASGSTFWLYAMGWYRPAPGKERELVASISSRGGSTYYADSVKGRFTISRDYAKNTVYLQMNSLKPEDTAVYYCAAKDIRYDDDYWGQGTQVTVSS")
"low polyreactivity"
>>> result("QVQLVDSGGGLVQAGGSLRLTCAASGSTYYRNAMGWYRQAPGKETEFVAAISFRGGGTYADSVKGRFTISRDNAKNTVYLQMNSLKPDDTAVYYCDSDHLSYRRRYEYWGQGTKVTVSS")
"low polyreactivity"
>>> result("QVQLVESGGGLVQAGGSLRLSCAASGFTFWANAMGWYRQAPGKERELVAAISWSGGSTTYADSVKGRFTISRDNAKNTVYLQMNSLKPEETAVYYCATDYGHYVTYRLSDYWGQGTQVTVSS")
"low polyreactivity"
>>> result("QVQLVESGGGLVEAGGSLRLSCAASGIIFVSYDMGWYRQAPGKERELVAAINRGGRTYYADSVKGRFTISRDNAKNTVYLQMISLKPEDTAVYYCAAQFHFRPFSWTYDYWGQGTQVSVSS")
"high polyreactivity"
>>> result("QVQLVESGGGLVQAGGSLRLSCAASGSILSLYTMGWYRQAPGKERELVAAITRSGGSTYYADSVKGRFTISRDNAKNTVYLQMNSLKPEDTAVYYCAATREVTSYSSAPRVYYWGQGTQVTVSS")
"high polyreactivity"

Origin of measurements: the nanobody polyreactivity screen of Harvey et al. (2022)
